SUBJECT OF TEST: Sigma non-opioid intracellular receptor 1 (Cavia porcellus)
Sequence (Q60492 whole entry): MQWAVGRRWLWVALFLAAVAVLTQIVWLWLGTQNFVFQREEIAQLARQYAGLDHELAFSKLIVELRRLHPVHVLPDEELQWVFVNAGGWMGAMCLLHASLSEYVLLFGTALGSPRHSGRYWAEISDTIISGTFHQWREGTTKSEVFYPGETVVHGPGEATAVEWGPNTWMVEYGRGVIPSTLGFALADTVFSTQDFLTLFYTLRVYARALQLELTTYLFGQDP
ASSAY DETAILS: Displacement of [3H](+)-pentazocine from S1R in guinea pig brain cortex membranes after 120 mins by scintillation counting assay
Type: cell membranes
ENDPOINT: pKi
Lab note — pKi values are minus log10 of concentrations in M.

Fill in: pKi of "COc1ccc2cc(C(=O)CN3CCC(Cc4ccccc4)CC3)ccc2c1" is ___
6.54

Fill in: pKi of "Cl.O=C(CCCN1CCC(Cc2ccccc2)CC1)c1ccc2ccccc2c1" is ___
7.62

Fill in: pKi of "COc1ccc(C(=O)CCN2CCC(Cc3ccccc3)CC2)cc1.Cl" is ___
7.96

Fill in: pKi of "O=C(CCN1CCC(Cc2ccccc2)CC1)c1ccc2ccccc2c1" is ___
6.68
